Test: Selectivity index, ratio of CC50 for human MT4 cells to EC50 for HIV-2 ROD infected in human MT4 cells
Assay type: toxicity, cell-based
Conditions: read-out: Ratio CC50/EC50
Would you mind telling me the reported selectivity ratio of each entry?
Answers are plain numbers.

Check out these entries, answers already filled in.
COc1ccc(N(C)C(=O)[C@H](Cc2cc(F)cc(F)c2)NC(=O)CN2CCN(C(=O)c3ccccc3N)CC2=O)cc1; 19
COc1ccc(N(C)C(=O)[C@H](Cc2ccccc2)NC(=O)CN2CCN(C(=O)c3ccccc3[N+](=O)[O-])CC2=O)cc1; 72
COc1ccc(N(C)C(=O)[C@H](Cc2cc(F)cc(F)c2)NC(=O)CN2CCN(C(=O)c3ccc(F)cc3)CC2=O)cc1; 3.7
COc1ccc(C(=O)N2CCN(CC(=O)N[C@@H](Cc3cc(F)cc(F)c3)C(=O)N(C)c3ccc(OC)cc3)C(=O)C2)cc1; 3.1
COc1ccc(N(C)C(=O)[C@H](Cc2ccccc2)NC(=O)CN2CCN(C(=O)c3ccc(C)cc3)CC2=O)cc1; 7
COC(=O)c1ccc(C(=O)N2CCN(CC(=O)N[C@@H](Cc3ccccc3)C(=O)N(C)c3ccc(OC)cc3)C(=O)C2)cc1; 8.3
COc1ccc(N(C)C(=O)[C@H](Cc2cc(F)cc(F)c2)NC(=O)CN2CCN(C(=O)c3ccc(C)cc3)CC2=O)cc1; 2.1
COc1ccc(N(C)C(=O)[C@H](Cc2ccccc2)NC(=O)CN2CCN(C(=O)c3ccccc3C(F)(F)F)CC2=O)cc1; 45
COC(=O)c1ccc(C(=O)N2CCN(CC(=O)N[C@@H](Cc3cc(F)cc(F)c3)C(=O)N(C)c3ccc(OC)cc3)C(=O)C2)cc1; 4.6
COc1ccc(N(C)C(=O)[C@H](Cc2cc(F)cc(F)c2)NC(=O)CN2CCN(C(=O)c3cccc(F)c3)CC2=O)cc1; 7.6

Parameters: items (list). Returns: selectivity ratio for each item.
1. COc1ccc(N(C)C(=O)[C@H](Cc2ccccc2)NC(=O)CN2CCN(C(=O)c3ccc(F)cc3)CC2=O)cc1
2. COc1ccc(C(=O)N2CCN(CC(=O)N[C@@H](Cc3ccccc3)C(=O)N(C)c3ccc(OC)cc3)C(=O)C2)cc1
3. COc1ccc(N(C)C(=O)[C@H](Cc2cc(F)cc(F)c2)NC(=O)CN2CCN(C(=O)c3ccccc3[N+](=O)[O-])CC2=O)cc1
4. COc1ccc(N(C)C(=O)[C@H](Cc2cc(F)cc(F)c2)NC(=O)CN2CCN(C(=O)c3ccccc3C(F)(F)F)CC2=O)cc1

Response:
1: 7; 2: 5.2; 3: 25; 4: 22
